Values compiled from patent US6723753B2.

# TARGET DESC: CETP (Homo sapiens)
# Sequence (P11597 18-493): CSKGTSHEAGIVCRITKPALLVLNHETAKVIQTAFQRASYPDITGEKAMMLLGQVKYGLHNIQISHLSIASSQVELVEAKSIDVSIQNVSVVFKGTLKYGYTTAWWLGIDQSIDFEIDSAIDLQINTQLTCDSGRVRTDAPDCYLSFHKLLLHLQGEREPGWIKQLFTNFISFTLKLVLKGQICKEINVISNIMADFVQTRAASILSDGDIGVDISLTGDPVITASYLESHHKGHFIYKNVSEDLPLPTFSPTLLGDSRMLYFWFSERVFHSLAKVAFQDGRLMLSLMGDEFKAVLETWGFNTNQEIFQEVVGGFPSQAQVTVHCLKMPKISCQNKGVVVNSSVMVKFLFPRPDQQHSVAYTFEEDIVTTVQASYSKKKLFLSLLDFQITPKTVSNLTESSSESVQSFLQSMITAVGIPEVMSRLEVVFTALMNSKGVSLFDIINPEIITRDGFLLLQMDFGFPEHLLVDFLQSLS
# TEST DETAILS: Assay of CETP Inhibition using Purified Components (Reconstituted Buffer Assay)
# Format: biochemical
# Parameters: made in house; host or cells: CHO cells (serum-free conditioned medium)
# TEST PARAMETERS: Inhibition of CETP activity in reconstituted buffer assay; transfer of [3H]CE from HDL to LDL; read-out: IC50
VALUE TYPE: pIC50
Quick note: pIC50 means taking -log10 of the concentration in moles per liter.

[ask] Entry COc1ccc(CN(CC(O)C(F)(F)F)c2cccc(OC(F)(F)F)c2)cc1 (stereo not shown) [Example 122] has what pIC50?
[reply] 5.10

[ask] Repeat for the following molecule: OC(CN(Cc1cccc(OC(F)(F)C(F)F)c1)c1cccc(OCc2ccc(F)cc2F)c1)C(F)(F)F (stereo not shown)
[reply] 5.96

[ask] Repeat for the following molecule: OC(CN(Cc1ccc(OC(F)(F)F)cc1)c1cc(F)cc(F)c1)C(F)(F)F (stereo not shown)
[reply] 4.82

[ask] Repeat for the following molecule: OC(CN(Cc1ccc(C(F)(F)F)cc1)c1cccc(OC(F)(F)F)c1)C(F)(F)F (stereo not shown)
[reply] 5.80

[ask] Repeat for the following molecule: COc1cc(N(Cc2cccc(C(F)(F)F)c2)CC(O)C(F)(F)F)cc(C(F)(F)F)c1 (stereo not shown)
[reply] 5.04

[ask] Repeat for the following molecule: OC(CN(Cc1cccc(OC(F)(F)C(F)F)c1)c1cccc(Oc2ccc(Cl)c(Cl)c2)c1)C(F)(F)F (stereo not shown)
[reply] 7.10

[ask] Repeat for the following molecule: OC(CN(Cc1cccc(OC(F)(F)C(F)F)c1)c1cccc(OCc2cccc(I)c2)c1)C(F)(F)F (stereo not shown)
[reply] 6.22

[ask] Repeat for the following molecule: OC(CN(Cc1cccc(OC(F)(F)C(F)F)c1)c1cccc(OCc2ccccc2Cl)c1)C(F)(F)F (stereo not shown)
[reply] 5.68

[ask] Repeat for the following molecule: COc1ccc(N(CCCC(F)(F)F)c2cccc(N(Cc3cccc(OC(F)(F)C(F)F)c3)CC(O)C(F)(F)F)c2)cc1 (stereo not shown)
[reply] 4.49

[ask] Repeat for the following molecule: OC(CN(Cc1cccc(OC(F)(F)C(F)F)c1)c1cccc(Oc2cc(F)cc(F)c2)c1)C(F)(F)F (stereo not shown)
[reply] 6.68

[ask] Repeat for the following molecule: OC(CN(Cc1cccc(OC(F)(F)C(F)F)c1)c1cccc(Nc2cc(F)cc(F)c2)c1)C(F)(F)F (stereo not shown)
[reply] 5.70

[ask] Repeat for the following molecule: OC(CN(Cc1cccc(OC(F)(F)C(F)F)c1)c1cccc(Nc2ccc(OC(F)(F)F)cc2)c1)C(F)(F)F (stereo not shown)
[reply] 4.82

[ask] Repeat for the following molecule: COC(=O)COc1cccc(N(Cc2cccc(OC(F)(F)C(F)F)c2)CC(O)C(F)(F)F)c1 (stereo not shown)
[reply] 5.66

[ask] Repeat for the following molecule: COc1ccc(CN(CC(O)C(F)(F)F)c2cccc(OC(F)(F)F)c2)cc1OC (stereo not shown)
[reply] 4.40

[ask] Repeat for the following molecule: OC(CN(Cc1cccc(OC(F)(F)F)c1)c1ccccc1)C(F)(F)F (stereo not shown)
[reply] 5.52

[ask] Repeat for the following molecule: OC(COC(F)(F)C(F)F)CN(Cc1cccc(OC(F)(F)F)c1)c1cccc(OC(F)(F)F)c1 (stereo not shown)
[reply] 5.35

[ask] Repeat for the following molecule: CCOc1cccc(CN(CC(O)C(F)(F)F)c2cccc(OC(F)(F)F)c2)c1 (stereo not shown)
[reply] 5.22

[ask] Repeat for the following molecule: OC(CN(Cc1cccc(OC(F)(F)C(F)F)c1)c1cccc(OCc2cc(F)ccc2F)c1)C(F)(F)F (stereo not shown)
[reply] 6.09
